System: P. falciparum 3D7 growth, pLDH absorbance
experimentalDetails: blood-stage malaria parasite growth potency – strain 3D7, dose response (AID 2305)
quantityKind: pIC50
// scale note: pIC50 = -log10(conc_M); give the bare number

Exercise: Would you kindly share the measured pIC50 for O=C(Nc1cccc(N2CCC(NCc3cnn(-c4cccc(F)c4)c3)CC2)c1)c1ccncc1 ?
Key: 5.86

Exercise: Return reported pIC50; argument: CCc1cc(CNC2CCN(CCc3c(F)cnc4ccc(OC)nc34)CC2)cc2c1OCCO2
Key: 6.59

Exercise: Give the measured pIC50 of Cc1cc(C)cc(NC(=S)NCCCCN2CCN(c3cccc(Cl)c3)CC2)c1 .
Key: 5.87
